// reported IC50 per item
- ASSAY METHOD TEXT: Inhibition of sheep dynamin 1 GTPase activity after 30 mins by malachite-green method
- Parameters: species or system Ovis aries

# STRUCTURE STRING, MEASUREMENT TYPE, RESULT
data = [
    ("C=CCN1C(=O)/C(=C/c2cc(Cl)cc(Cl)c2)SC1=S", "IC50", "31 µM"),
]

Form field IC50, entry O=C(O)CN1C(=O)/C(=C/c2coc3c(Cl)cc(Cl)cc3c2=O)SC1=S : 3.4 µM

Form field IC50, entry O=C1/C(=C/c2cc(Cl)cc(Cl)c2)SC(=S)N1Cc1ccccc1 : 50 µM

Form field IC50, entry O=C(O)CCN1C(=O)/C(=C/c2ccc3nsnc3c2)SC1=S : > 100 µM

Form field IC50, entry O=C(O)CCN1C(=O)/C(=C/C2=Cc3ccccc3OC2)SC1=S : 23.5 µM

Form field IC50, entry CCN1C(=O)/C(=C/c2coc3c(Cl)cc(Cl)cc3c2=O)SC1=S : 5.1 µM

###

- ASSAY METHOD TEXT: Inhibition of sheep dynamin 1 GTPase activity after 30 mins by malachite-green method
- Set-up: species or system Ovis aries
MEASUREMENT TYPE: pIC50
# pIC50 is unitless: minus log10 of the molar concentration; print number only

# STRUCTURE STRING, NUMBER
data = [
    ("CCN1C(=O)/C(=C/c2cc(Cl)cc(Cl)c2)SC1=S", 5.51),
]

Form field pIC50, entry O=C1NC(=S)S/C1=C\c1ccc2nonc2c1 : 5.13

Form field pIC50, entry O=C(O)CCN1C(=O)/C(=C/c2coc3c(Cl)cc(Cl)cc3c2=O)SC1=S : 5.00

Form field pIC50, entry O=C(O)CCN1C(=O)/C(=C/c2ccc(Br)cc2)SC1=S : 5.05

Form field pIC50, entry O=C1NC(=S)S/C1=C\c1cc(Cl)cc(Cl)c1 : 5.12

###

- Species: Ovis aries
- ASSAY METHOD TEXT: Inhibition of sheep dynamin 1 GTPase activity up to 300 uM after 30 mins by malachite-green method
Calls of active or inactive are those of the source. No cut-off for these calls is given here.
MEASUREMENT TYPE: inhibition

Known inhibition results, listed for orientation:
# STRUCTURE STRING, MEASUREMENT TYPE, RESULT
records = [
    ("O=C(O)CN1C(=O)/C(=C/C2=Cc3ccccc3OC2)SC1=S", "inhibition", "inactive"),
    ("CN(C)CCCOc1ccc(/C=C2\\SC(=S)N(CC(=O)O)C2=O)cc1", "inhibition", "inactive"),
    ("O=C1/C(=C/c2csc3ccc(Cl)cc23)SC(=S)N1Cc1ccccc1", "inhibition", "inactive"),
    ("CCN1C(=O)/C(=C/C2=Cc3ccccc3OC2)SC1=S", "inhibition", "inactive"),
    ("O=C(O)CN1C(=O)/C(=C/c2ccc3nsnc3c2)SC1=S", "inhibition", "inactive"),
]

Moving on to another molecule below.
Form field inhibition, entry O=C1/C(=C/c2ccc(-c3ccccc3)cc2)SC(=S)N1Cc1ccccc1 : inactive

###

// reported IC50 per item
- ASSAY METHOD TEXT: Inhibition of sheep dynamin 1 GTPase activity after 30 mins by malachite-green method
- Set-up: species or system Ovis aries
Field format: number, assumed µM, no unit text.

Form field IC50, entry O=C1NC(=S)S/C1=C\c1csc2ccc(Cl)cc12 : 5.5

Form field IC50, entry C=CCN1C(=O)/C(=C/c2ccc(OCCCN(C)C)cc2)SC1=S : 3.6

Form field IC50, entry O=C(O)CN1C(=O)/C(=C/c2csc3ccc(Cl)cc23)SC1=S : 12.3

Form field IC50, entry O=C1NC(=S)S/C1=C\C1=Cc2ccccc2OC1 : 90

Form field IC50, entry O=C1/C(=C/c2ccc3nonc3c2)SC(=S)N1Cc1ccccc1 : 53
